Test system: HIV-IIIb
procedureText: Antiviral assay in MT-2 cells infected with HIV-IIIb
Format: cell-based
particulars: MT-2 cells infected with HIV-IIIb, m.o.i. 0.01, 10% FBS, 5 days at 37° C., CellTiter-Glo chemiluminescence; read-out: EC50 in MT-2 cells
valueType: EC50 (nM)
Answers are plain numbers, in nM.

[[record]]
compound = "CNC(=O)c1c(O)c2ncc(Cc3ccc(F)cc3)c3c2n(c1=O)CC(CO)(CO)O3 [A-109]"
targetortestsystem = "HIV-IIIb"
valuetype = "EC50"
measuredresult = 7.1


Could you now consider this next compound?
(Q) For CCN(CC)C(=O)C1=Cn2c(=O)c(C(=O)NC)c(O)c3ncc(Cc4ccc(F)cc4)c(c32)O1 [A-91] , what is its reported EC50?
(A) 10

---

System: HIV-IIIb
procedureText: Antiviral assay in MT-2 cells infected with HIV-IIIb
Format: cell-based
particulars: Human immunodeficiency virus 1, IIIB, MT2, 120 h, read-out: EC50 in MT-2 cells (nM)
Would you mind telling me the reported EC50 of each entry?
Give bare numbers, in nM.

Below, 4 compounds whose answers are already recorded.
[[record]]
compound = "CNC(=O)c1c(O)c2ncc(Cc3ccc(F)cc3)c3c2n(c1=O)C=C(COC)O3 [Example 137]"
unitstext = "nM"
measuredresult = 5

[[record]]
compound = "CNC(=O)c1c(O)c2ncc(Cc3ccc(F)cc3)c3c2n(c1=O)C=C(c1nnc(C)o1)O3 [Example 130]"
unitstext = "nM"
measuredresult = 4.6

[[record]]
compound = "CNC(=O)c1c(O)c2ncc(Cc3ccc(F)cc3)c3c2n(c1=O)C[C@@H](CN(C)S(=O)(=O)N(C)C)O3 [Example 210]"
unitstext = "nM"
measuredresult = 5

[[record]]
compound = "CNC(=O)c1c(O)c2ncc(Cc3ccc(F)cc3)c3c2n(c1=O)C=C(C1=NC(C)(C)CO1)O3 [Example 129]"
unitstext = "nM"
measuredresult = 2.2


(Q) Fill in: EC50 of CNC(=O)c1c(O)c2ncc(Cc3ccc(F)cc3)c3c2n(c1=O)C=C(C(=O)N(C)C)O3 [A-81] is ___
(A) 10.5
